- experimentalDetails: self-splicing fitness, log relative to wild type (ln ratio); higher = more splicing; Tetrahymena group I intron in knt gene, E. coli kanamycin selection, DiMSum; sequences stand for … in CUCUCU…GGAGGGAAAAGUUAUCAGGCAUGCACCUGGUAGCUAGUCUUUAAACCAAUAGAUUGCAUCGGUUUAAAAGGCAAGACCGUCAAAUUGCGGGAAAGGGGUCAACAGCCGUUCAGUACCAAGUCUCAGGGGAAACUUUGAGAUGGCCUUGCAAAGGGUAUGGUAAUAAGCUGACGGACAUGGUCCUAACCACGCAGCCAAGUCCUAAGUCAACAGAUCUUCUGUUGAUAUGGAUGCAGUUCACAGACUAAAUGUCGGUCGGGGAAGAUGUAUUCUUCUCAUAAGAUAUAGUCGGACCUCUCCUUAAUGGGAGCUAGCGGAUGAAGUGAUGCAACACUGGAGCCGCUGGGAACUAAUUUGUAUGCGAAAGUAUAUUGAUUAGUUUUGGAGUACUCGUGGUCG;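 note: selection with 25 µg/mL kanamycin versus none on LB agar overnight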
- testConditions: 37 °C

# polymerSequence, self-splicing fitness (ln)
rows = [
    ("ACUAAGCAAUAUUACGCGAU", -1.82),
    ("AAAUAGCAAUAUUACGUCGC", -2.54),
    ("GUUCAGCAAUAUUACGUUAG", -0.731),
    ("UCGGAGCAAUAUUACGCCUU", -2.92),
    ("GCAAAGCAAUAUUACGCCUG", -1.12),
    ("CAUCAGCAAUAUUACGAUGU", -2.58),
    ("GAAGAGCAAUAUUACGAAAG", -2.41),
    ("CGCAAGCAAUAUUACGCGCG", -2.51),
    ("GCCAAGCAAUAUUACGAUUA", -2.57),
    ("CUCAAGCAAUAUUACGUUUU", -2.34),
    ("UAAUAGCAAUAUUACGGCAA", -0.69),
    ("GUCGAGCAAUAUUACGGUCC", -0.877),
    ("GGUUAGCAAUAUUACGAUUG", -1.1),
    ("UCGCAGCAAUAUUACGUUAC", -2.95),
    ("CGCUAGCAAUAUUACGAAUA", -2.57),
    ("AUGAAGCAAUAUUACGGACA", 0.5),
    ("ACUUAGCAAUAUUACGGGCG", -0.483),
    ("CAUUAGCAAUAUUACGCUUA", -2.16),
    ("GUACAGCAAUAUUACGUACU", -2.79),
    ("UUGUAGCAAUAUUACGUAGA", -1.23),
    ("CCGAAGCAAUAUUACGGCAC", -2.37),
    ("CGAUAGCAAUAUUACGUUGC", -3.8),
    ("AGUCAGCAAUAUUACGGUUC", -1.51),
    ("CUCUAGCAAUAUUACGAUCU", -1.9),
    ("CACGAGCAAUAUUACGGUUU", -2.93),
    ("GAGUAGCAAUAUUACGGCAU", 0.37),
    ("CCCGAGCAAUAUUACGAAAA", -1.74),
    ("AGGUAGCAAUAUUACGGCGC", 0.163),
    ("UUUAAGCAAUAUUACGUUCA", -0.403),
    ("CUAUAGCAAUAUUACGUUAG", -2.67),
    ("AUCAAGCAAUAUUACGAGAU", -2.67),
    ("GUUAAGCAAUAUUACGACAG", -1.82),
    ("GUUAAGCAAUAUUACGUUGA", -1.43),
    ("GACAAGCAAUAUUACGUAUA", -1.79),
    ("CUAUAGCAAUAUUACGCCCG", -0.0929),
    ("AGUGAGCAAUAUUACGGGAG", -2.38),
    ("CUGAAGCAAUAUUACGGAAC", -2.55),
    ("CCCCAGCAAUAUUACGUAUA", -3.21),
    ("GGGAAGCAAUAUUACGGCGC", -1.1),
    ("UCUGAGCAAUAUUACGCUGA", -0.151),
    ("UUUUAGCAAUAUUACGCGGG", -0.801),
    ("GCGUAGCAAUAUUACGCUGA", -3.19),
    ("ACACAGCAAUAUUACGCUCU", -0.159),
    ("GUGCAGCAAUAUUACGGUUU", -0.000827),
    ("GCCGAGCAAUAUUACGCGGC", -2.33),
    ("ACAAAGCAAUAUUACGGUUA", -0.719),
    ("ACCUAGCAAUAUUACGAGCA", -1.59),
    ("AUCAAGCAAUAUUACGCGCG", -0.0559),
    ("CCCAAGCAAUAUUACGGAAU", -2.94),
    ("UGGAAGCAAUAUUACGUCGC", -2.39),
    ("UGAUAGCAAUAUUACGGGAA", -2.44),
    ("GCAUAGCAAUAUUACGGUCG", -1.12),
    ("UAAAAGCAAUAUUACGUGUA", -0.743),
    ("AGGAAGCAAUAUUACGCCAC", -2.64),
    ("GCUAAGCAAUAUUACGAAGU", -3.01),
    ("UACGAGCAAUAUUACGCCAC", -2.29),
    ("CGAAAGCAAUAUUACGCGAG", -2.26),
    ("AAGGAGCAAUAUUACGGGGU", -2.31),
    ("GUGCAGCAAUAUUACGUCGU", -0.193),
    ("AAGCAGCAAUAUUACGUUUC", -2.27),
    ("AGGUAGCAAUAUUACGUCCA", -0.214),
    ("ACCGAGCAAUAUUACGUGUC", -3.04),
    ("CCGAAGCAAUAUUACGUCGG", -2.59),
    ("AAUGAGCAAUAUUACGACCU", -0.257),
    ("UGUUAGCAAUAUUACGGGGA", -2.2),
    ("CCAUAGCAAUAUUACGCCAA", -1.58),
    ("CCGCAGCAAUAUUACGACAG", 0.0928),
]
